For each record, write down the corresponding pIC50.
Sequence of the target: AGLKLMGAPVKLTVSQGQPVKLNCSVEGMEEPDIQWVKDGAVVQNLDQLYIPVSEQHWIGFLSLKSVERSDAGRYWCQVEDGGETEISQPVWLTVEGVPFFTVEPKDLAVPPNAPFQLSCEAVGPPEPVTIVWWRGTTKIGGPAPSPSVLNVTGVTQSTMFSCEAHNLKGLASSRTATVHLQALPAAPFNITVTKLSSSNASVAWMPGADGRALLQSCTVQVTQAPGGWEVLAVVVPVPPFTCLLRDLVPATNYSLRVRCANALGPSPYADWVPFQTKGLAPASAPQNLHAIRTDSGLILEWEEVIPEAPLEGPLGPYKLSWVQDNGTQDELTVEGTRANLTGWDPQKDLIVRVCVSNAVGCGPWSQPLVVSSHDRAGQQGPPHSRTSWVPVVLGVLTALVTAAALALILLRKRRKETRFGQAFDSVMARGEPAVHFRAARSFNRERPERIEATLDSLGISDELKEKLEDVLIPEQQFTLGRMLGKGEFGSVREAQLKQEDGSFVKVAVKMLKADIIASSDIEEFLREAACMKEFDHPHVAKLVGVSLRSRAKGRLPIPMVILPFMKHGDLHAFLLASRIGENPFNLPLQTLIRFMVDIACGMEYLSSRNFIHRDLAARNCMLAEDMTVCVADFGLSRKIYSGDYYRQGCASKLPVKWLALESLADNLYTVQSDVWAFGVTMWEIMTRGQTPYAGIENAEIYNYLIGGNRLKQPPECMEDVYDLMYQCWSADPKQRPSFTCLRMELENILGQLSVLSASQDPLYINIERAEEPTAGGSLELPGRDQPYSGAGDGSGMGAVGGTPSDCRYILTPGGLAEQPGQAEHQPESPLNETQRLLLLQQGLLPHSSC
Give bare numbers, as −log10 of the molar value.

Reference set (2 entries):
[
  {
    "test.smiles": "COc1cc2nccc(Oc3cnc(NC(=O)c4nn(C(C)C)cc(-c5ccc(F)cc5)c4=O)nc3)c2cc1OC",
    "pIC50": 7.92
  },
  {
    "test.smiles": "COc1cc2nccc(Oc3cnc(NC(=O)c4nn(C5CC5)cc(-c5ccc(F)cc5)c4=O)nc3)c2cc1OC",
    "pIC50": 8.10
  }
]

-- ask Consider the molecule `COc1cc2nccc(Oc3ncc(NC(=O)c4nn(C(C)C)cc(-c5ccc(F)cc5)c4=O)cn3)c2cc1OC` and give its measured pIC50.
-- reply 8.15

* * *

test: Stability in liver microsome of mice; type: in vitro ADME; details: liver microsomes; Mouse liver microsome 0.5 mg protein/mL, compound 1 μM, 37° C.
For each record, write down the corresponding half-life at 1 μM.
One number for each entry, in h.

Reference set (3 entries):
[
  {
    "compound": "COc1cc2nccc(Oc3ccc(NC(=O)c4nn(C5CC5)cc(-c5ccc(F)cc5)c4=O)cn3)c2cc1OC [Compound 36]",
    "observed.value": 5.02
  },
  {
    "compound": "COc1cc2nccc(Oc3cnc(NC(=O)c4nn(C(C)C)cc(-c5ccc(F)cc5)c4=O)nc3)c2cc1OC [Compound 16]",
    "observed.value": 1.63
  },
  {
    "compound": "COc1cc2nccc(Oc3ncc(NC(=O)c4cn(C5CC5)nc(-c5ccc(F)cc5)c4=O)cn3)c2cc1OC [Compound 44]",
    "observed.value": 2.13
  }
]

// each compound listed below needs its half-life at 1 μM
1. COc1cc2nccc(Oc3ccc(NC(=O)c4nn(C5CC5)cc(-c5ccc(F)cc5)c4=O)nc3)c2cc1OC [Compound 31]
2. COc1cc2nccc(Oc3cnc(NC(=O)c4cn(C(C)C)nc(-c5ccc(F)cc5)c4=O)nc3)c2cc1OC [Compound 39]

-- reply
14.4
57.8

// each compound listed below needs its half-life at 1 μM
1. COc1cc2nccc(Oc3ncc(NC(=O)c4nn(C5CC5)cc(-c5ccc(F)cc5)c4=O)cn3)c2cc1OC [Compound 37]
2. COc1cc2nccc(Oc3ncc(NC(=O)c4nn(C(C)C)cc(-c5ccc(F)cc5)c4=O)cn3)c2cc1OC [Compound 34]

-- reply
1: 8.88; 2: 4.62

* * *

test: Rat PK evaluation; format: in vivo; conditions: rat, plasma; SD rats, PO 5 mg/kg, n = 3; read-out: AUClast po (area under the drug-time curve from 0 to 48 hours)
For each record, write down the corresponding AUC(0-t).
Give bare numbers, in µg·h/mL.

[
  {
    "test.smiles": "COc1cc2nccc(Oc3ncc(NC(=O)c4cn(C(C)C)nc(-c5ccc(F)cc5)c4=O)cn3)c2cc1OC",
    "AUC(0-t) (µg·h/mL)": 23
  },
  {
    "test.smiles": "COc1cc2nccc(Oc3cnc(NC(=O)c4nn(C(C)C)cc(-c5ccc(F)cc5)c4=O)nc3)c2cc1OC",
    "AUC(0-t) (µg·h/mL)": 86.4
  },
  {
    "test.smiles": "COc1cc2nccc(Oc3cnc(NC(=O)c4cn(C(C)C)nc(-c5ccc(F)cc5)c4=O)nc3)c2cc1OC",
    "AUC(0-t) (µg·h/mL)": 32.4
  },
  {
    "test.smiles": "COc1cc2nccc(Oc3ccc(NC(=O)c4nn(C5CC5)cc(-c5ccc(F)cc5)c4=O)cn3)c2cc1OC",
    "AUC(0-t) (µg·h/mL)": 463
  },
  {
    "test.smiles": "COc1cc2nccc(Oc3ccc(NC(=O)c4nn(C(C)C)cc(-c5ccc(F)cc5)c4=O)cn3)c2cc1OC",
    "AUC(0-t) (µg·h/mL)": 246
  },
  {
    "test.smiles": "COc1cc2nccc(Oc3cnc(NC(=O)c4nn(C5CC5)cc(-c5ccc(F)cc5)c4=O)nc3)c2cc1OC",
    "AUC(0-t) (µg·h/mL)": 88.8
  }
]

// each compound listed below needs its AUC(0-t)
1. COc1cc2nccc(Oc3ccc(NC(=O)c4nn(C(C)C)cc(-c5ccc(F)cc5)c4=O)nc3)c2cc1OC
2. COc1cc2nccc(Oc3ccc(NC(=O)c4cn(C(C)C)nc(-c5ccc(F)cc5)c4=O)nc3)c2cc1OC

-- reply
67.4
14.4

* * *

experiment: Stability in liver microsome of mice; type: in vitro ADME; settings: liver microsomes; Mouse liver microsome 0.5 mg protein/mL, compound 1 μM, 37° C.
measurement.type: half-life at 1 μM (h)
Answers are plain numbers, in h.

Reference set (2 entries):
[
  {
    "test.smiles": "COc1cc2nccc(Oc3cnc(NC(=O)c4cn(C5CC5)cc(-c5ccc(F)cc5)c4=O)nc3)c2cc1OC",
    "unit.of.measurement": "h",
    "half-life at 1 μM": 4.13
  },
  {
    "test.smiles": "COc1cc2nccc(Oc3ccc(NC(=O)c4cn(C5CC5)nc(-c5ccc(F)cc5)c4=O)cn3)c2cc1OC",
    "unit.of.measurement": "h",
    "half-life at 1 μM": 10.5
  }
]

Switching to the query record.
-- ask Consider the compound `COc1cc2nccc(Oc3ncc(NC(=O)c4cn(C(C)C)nc(-c5ccc(F)cc5)c4=O)cn3)c2cc1OC` and give its measured half-life at 1 μM.
-- reply 8.88

* * *

Observed pIC50 values for UniProt P30530 are listed in what follows.
Sequence (P30530 26-894): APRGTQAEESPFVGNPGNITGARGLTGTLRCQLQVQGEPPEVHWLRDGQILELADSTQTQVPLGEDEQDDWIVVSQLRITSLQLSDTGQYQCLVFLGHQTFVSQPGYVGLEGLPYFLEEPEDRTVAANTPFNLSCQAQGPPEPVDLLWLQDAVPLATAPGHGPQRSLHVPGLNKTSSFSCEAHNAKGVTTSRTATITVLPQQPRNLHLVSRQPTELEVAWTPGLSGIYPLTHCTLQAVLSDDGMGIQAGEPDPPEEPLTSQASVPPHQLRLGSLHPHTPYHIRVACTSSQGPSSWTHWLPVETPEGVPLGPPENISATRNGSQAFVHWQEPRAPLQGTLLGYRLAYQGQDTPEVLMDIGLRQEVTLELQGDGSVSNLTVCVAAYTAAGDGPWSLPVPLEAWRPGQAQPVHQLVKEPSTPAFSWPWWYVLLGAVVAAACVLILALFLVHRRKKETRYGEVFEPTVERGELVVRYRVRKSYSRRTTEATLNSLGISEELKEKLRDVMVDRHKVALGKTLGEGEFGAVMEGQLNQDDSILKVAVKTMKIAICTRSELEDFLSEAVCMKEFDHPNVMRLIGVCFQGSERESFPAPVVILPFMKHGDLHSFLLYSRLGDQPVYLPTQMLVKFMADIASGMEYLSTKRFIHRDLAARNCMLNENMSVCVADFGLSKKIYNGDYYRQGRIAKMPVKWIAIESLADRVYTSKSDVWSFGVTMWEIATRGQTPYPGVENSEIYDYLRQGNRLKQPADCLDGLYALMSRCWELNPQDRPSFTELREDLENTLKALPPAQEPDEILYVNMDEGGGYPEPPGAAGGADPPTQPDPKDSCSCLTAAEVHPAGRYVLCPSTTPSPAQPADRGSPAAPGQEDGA
Give bare numbers, as −log10 of the molar value.

Reference set (2 entries):
[
  {
    "test.smiles": "COc1cc2nccc(Oc3cnc(NC(=O)c4nn(C(C)C)cc(-c5ccc(F)cc5)c4=O)nc3)c2cc1OC",
    "measurement.type": "pIC50",
    "observed.value": 7.89
  },
  {
    "test.smiles": "COc1cc2nccc(Oc3ccc(NC(=O)c4cn(C(C)C)cc(-c5ccc(F)cc5)c4=O)nc3)c2cc1OC",
    "measurement.type": "pIC50",
    "observed.value": 8.10
  }
]

-- ask Field: pIC50 (UniProt P30530). Entry: `COc1cc2nccc(Oc3cnc(NC(=O)c4cn(C(C)C)cc(-c5ccc(F)cc5)c4=O)nc3)c2cc1OC`
-- reply 7.77

* * *

experiment: Rat PK evaluation; assay type: in vivo; settings: SD rats, IV 1 mg/kg, n = 3
measurement.type: Vz_obs iv (apparent distribution volume) (L/kg)
Answers are plain numbers, in L/kg.

[
  {
    "compound": "COc1cc2nccc(Oc3cnc(NC(=O)c4cn(C(C)C)cc(-c5ccc(F)cc5)c4=O)nc3)c2cc1OC [Compound 20]",
    "Vz_obs iv (apparent distribution volume) / L/kg": 0.18
  },
  {
    "compound": "COc1cc2nccc(Oc3cnc(NC(=O)c4nn(C5CC5)cc(-c5ccc(F)cc5)c4=O)nc3)c2cc1OC [Compound 33]",
    "Vz_obs iv (apparent distribution volume) / L/kg": 0.146
  },
  {
    "compound": "COc1cc2nccc(Oc3ncc(NC(=O)c4cn(C(C)C)nc(-c5ccc(F)cc5)c4=O)cn3)c2cc1OC [Compound 40]",
    "Vz_obs iv (apparent distribution volume) / L/kg": 1.84
  },
  {
    "compound": "COc1cc2nccc(Oc3ccc(NC(=O)c4nn(C(C)C)cc(-c5ccc(F)cc5)c4=O)cn3)c2cc1OC [Compound 29]",
    "Vz_obs iv (apparent distribution volume) / L/kg": 0.42
  }
]

// each compound listed below needs its Vz_obs iv (apparent distribution volume)
1. COc1cc2nccc(Oc3ccc(NC(=O)c4cn(C(C)C)cc(-c5ccc(F)cc5)c4=O)nc3)c2cc1OC [Compound 14]
2. COc1cc2nccc(Oc3ncc(NC(=O)c4nn(C5CC5)cc(-c5ccc(F)cc5)c4=O)cn3)c2cc1OC [Compound 37]

-- reply
1. 0.25
2. 0.12

// each compound listed below needs its Vz_obs iv (apparent distribution volume)
1. COc1cc2nccc(Oc3ccc(NC(=O)c4nn(C5CC5)cc(-c5ccc(F)cc5)c4=O)cn3)c2cc1OC [Compound 36]
2. COc1cc2nccc(Oc3ccc(NC(=O)c4nn(C5CC5)cc(-c5ccc(F)cc5)c4=O)nc3)c2cc1OC [Compound 31]

-- reply
1. 0.095
2. 0.14
